experiment: Measurement of the approximate solubility (visual dissolution in solvent aliquots); assay type: physicochemical; settings: aqueous with cosolvent or surfactant or cyclodextrin, thermodynamic from solid, ambient, hexafluoroisopropanol/water 20:80 v/v
assay.readout: solubility

In: Need solubility, item N#Cc1ccc(N2CCC[C@@H]2C(O)C(F)(F)F)cc1C(F)(F)F (stereo partly shown)
Out: < 2000 µg/mL

* * *

experiment: Measurement of the approximate solubility (visual dissolution in solvent aliquots); assay type: physicochemical; conditions: thermodynamic from solid, ambient, water
assay.readout: solubility

In: Need solubility, item N#Cc1ccc(N2CCC[C@@H]2C(O)C(F)(F)F)cc1C(F)(F)F (stereo partly shown)
Out: < 2000 µg/mL

* * *

assay: Measurement of the approximate solubility (visual dissolution in solvent aliquots); type: physicochemical; details: organic solvent or mixture, thermodynamic from solid, ambient, 1,4-dioxane
assay.readout: solubility

In: Need solubility, item N#Cc1ccc(N2CCC[C@@H]2C(O)C(F)(F)F)cc1C(F)(F)F (stereo partly shown)
Out: > 111 mg/mL

* * *

experiment: Measurement of the approximate solubility (visual dissolution in solvent aliquots); assay type: physicochemical; settings: organic solvent or mixture, thermodynamic from solid, ambient, tetrahydrofuran
assay.readout: solubility

In: Need solubility, item N#Cc1ccc(N2CCC[C@@H]2C(O)C(F)(F)F)cc1C(F)(F)F (stereo partly shown)
Out: > 102 mg/mL

* * *

assay: Measurement of the approximate solubility (visual dissolution in solvent aliquots); type: physicochemical; settings: aqueous with cosolvent or surfactant or cyclodextrin, thermodynamic from solid, ambient, 1,4-dioxane/water 20:80 v/v
assay.readout: solubility

In: Need solubility, item N#Cc1ccc(N2CCC[C@@H]2C(O)C(F)(F)F)cc1C(F)(F)F (stereo partly shown) [Compound of Formula (I)]
Out: < 2000 µg/mL

* * *

Assay: Measurement of the approximate solubility (visual dissolution in solvent aliquots)
Format: physicochemical
Details: organic solvent or mixture, thermodynamic from solid, ambient, isopropanol
Procedure: Aliquots of various solvents were added to measured amounts of compound with agitation (typically sonication) at ambient or elevated temperatures until complete dissolution was achieved, as judged by visual observation. The approximate solubility at ambient temperature must be known in order to carry out systematic crystallization experiments.
assay.readout: solubility

In: Need solubility, item N#Cc1ccc(N2CCC[C@@H]2C(O)C(F)(F)F)cc1C(F)(F)F (stereo partly shown)
Out: > 102 mg/mL

* * *

assay: Measurement of the approximate solubility (visual dissolution in solvent aliquots); type: physicochemical; conditions: aqueous with cosolvent or surfactant or cyclodextrin, thermodynamic from solid, ambient, 1-propanol/water 20:80 v/v
assay.readout: solubility

In: Need solubility, item N#Cc1ccc(N2CCC[C@@H]2C(O)C(F)(F)F)cc1C(F)(F)F (stereo partly shown) [Compound of Formula (I)]
Out: < 2000 µg/mL

* * *

experiment: Measurement of the approximate solubility (visual dissolution in solvent aliquots); assay type: physicochemical; settings: organic solvent or mixture, thermodynamic from solid, ambient, tert-butyl methyl ether
assay.readout: solubility

In: Need solubility, item N#Cc1ccc(N2CCC[C@@H]2C(O)C(F)(F)F)cc1C(F)(F)F (stereo partly shown) [Compound of Formula (I)]
Out: > 111 mg/mL

* * *

Test: Measurement of the approximate solubility (visual dissolution in solvent aliquots)
Assay type: physicochemical
Settings: aqueous with cosolvent or surfactant or cyclodextrin, thermodynamic from solid, ambient, acetone/water 20:80 v/v
Experimental: Aliquots of various solvents were added to measured amounts of compound with agitation (typically sonication) at ambient or elevated temperatures until complete dissolution was achieved, as judged by visual observation. The approximate solubility at ambient temperature must be known in order to carry out systematic crystallization experiments.
assay.readout: solubility

In: Need solubility, item N#Cc1ccc(N2CCC[C@@H]2C(O)C(F)(F)F)cc1C(F)(F)F (stereo partly shown)
Out: < 2000 µg/mL
